Exercise: for every item that follows, state its recorded PHAKPA Disease level (%) P6 at 16 ppm.
Tested on: Phakopsora pachyrhizi (strain containing the amino acid substitution F129L in the mitochondrial cytochrome b protein)
Assay Overview: Use example 2: protective control of soybean rust on soybeans (PHAKPA P6), inoculation six days after spraying
Type: in vivo
Study Conditions: % diseased leaf area on soybean, 16 ppm spray, inoculation six days after treatment, untreated controls usually >85 %
Quick note: give the figure in %, leave out the unit.

Qu. Fill in PHAKPA Disease level (%) P6 at 16 ppm for record CNC(=O)/C(=N/OC)c1cccc(C)c1CO/N=C(\C)C#Cc1ccccc1Br
Ans. 0

Qu. Write down PHAKPA Disease level (%) P6 at 16 ppm measured for item CO/N=C(/C(=O)OC)c1cccc(C)c1CO/N=C(\C)C#Cc1ccc(F)cc1C(=O)OC [Example 127]
Ans. 47

Qu. Give me measured PHAKPA Disease level (%) P6 at 16 ppm, please, for this molecule: CO/C=C(/C(=O)OC)c1cccc(C)c1CO/N=C(\C)C#Cc1ccc(F)c(C(=O)OC)c1
Ans. 60

Qu. For the molecule CNC(=O)/C(=N/OC)c1ccccc1CO/N=C(\C)C#Cc1ccc(Br)cc1 , report PHAKPA Disease level (%) P6 at 16 ppm.
Ans. 40

Numbers sourced from patent US20230303483A1.
